- experiment.notes: Solubility of pregabalin and acetaminophen in water at different pH values (HPLC-UV)
- particulars: pH 6, aqueous buffer, thermodynamic from solid, Solubility of pregabalin, water, room temperature, pH 6; pregabalin alone
readout.label: solubility (mg/mL)
One number for each entry, in mg/mL.

Exam item: Can you share its solubility? I mean this compound: CC(C)C[C@H](CN)CC(=O)O
Marked response: 31

----------
- experiment.notes: in vivo
- particulars: rat, in vivo, iv, 17 mg/kg, Equivalence (80%-125%) range of acetaminophen Cmax
readout.label: Cmax

Exam item: Can you share its Cmax? I mean this compound: CC(=O)Nc1ccc(O)cc1 [Acetaminophen, N-(4-hydroxyphenyl)acetamide]
Marked response: 14.9 to 23.3 µg/mL

----------
- experiment.notes: Solubility of pregabalin and acetaminophen in water at different pH values (HPLC-UV)
- particulars: pH 5, aqueous buffer, thermodynamic from solid, Solubility of pregabalin, water, room temperature, pH 5; pregabalin alone
readout.label: solubility (mg/mL)
One number for each entry, in mg/mL.

Exam item: Can you share its solubility? I mean this molecule: CC(C)C[C@H](CN)CC(=O)O [Pregabalin]
Marked response: 32.4

----------
- experiment.notes: in vivo
- particulars: rat, in vivo, iv, 17 mg/kg, AUC0-∞ of acetaminophen
readout.label: AUC(0-inf) (ng·h/mL)
Give bare numbers, in ng·h/mL.

Exam item: Can you share its AUC(0-inf)? I mean this compound: CC(=O)Nc1ccc(O)cc1 [Acetaminophen, N-(4-hydroxyphenyl)acetamide]
Marked response: 11500

----------
- experiment.notes: in vivo
- particulars: rat, in vivo, iv, 17 mg/kg, Equivalence (80%-125%) range of acetaminophen AUC0-∞
readout.label: AUC(0-inf)

Exam item: Can you share its AUC(0-inf)? I mean this molecule: CC(=O)Nc1ccc(O)cc1 [Acetaminophen, N-(4-hydroxyphenyl)acetamide]
Marked response: 9190 to 14400 ng·h/mL

----------
- experiment.notes: Solubility of pregabalin and acetaminophen in water at different pH values (HPLC-UV)
- particulars: pH 6, aqueous buffer, thermodynamic from solid, Solubility of acetaminophen, water, pH 6; co-dissolved with pregabalin
readout.label: solubility (mg/mL)
One number for each entry, in mg/mL.

Exam item: Can you share its solubility? I mean this molecule: CC(=O)Nc1ccc(O)cc1 [Acetaminophen, N-(4-hydroxyphenyl)acetamide]
Marked response: 17.9

----------
- experiment.notes: Pharmacokinetic parameters after 15 min infusion in rats
- particulars: rat, in vivo, iv, 5 mg/kg, Equivalence (80%-125%) range of pregabalin Cmax, rats; Pregabalin 5 mg/kg alone as reference
readout.label: Cmax

Exam item: Can you share its Cmax? I mean this molecule: CC(C)C[C@H](CN)CC(=O)O [Pregabalin]
Marked response: 6330 to 9880 ng/mL

----------
- experiment.notes: Pharmacokinetic parameters after 15 min infusion in rats
- particulars: rat, in vivo, iv, 5 mg/kg, AUC0-∞ of pregabalin, rats, 15 min IV infusion; Pregabalin 5 mg/kg
readout.label: AUC(0-inf) (ng·h/mL)
Numbers only, in ng·h/mL.

Exam item: Can you share its AUC(0-inf)? I mean this molecule: CC(C)C[C@H](CN)CC(=O)O [Pregabalin]
Marked response: 26100

----------
- experiment.notes: Pharmacokinetic parameters after 15 min infusion in rats
- particulars: rat, in vivo, iv, 1.25 mg/kg, Equivalence (80%-125%) range of pregabalin AUC0-∞, rats; Pregabalin 1.25 mg/kg alone as reference
readout.label: AUC(0-inf)

Exam item: Can you share its AUC(0-inf)? I mean this molecule: CC(C)C[C@H](CN)CC(=O)O [Pregabalin]
Marked response: 5400 to 8440 ng·h/mL

----------
- experiment.notes: Pharmacokinetic parameters after 15 min infusion in rats
- particulars: rat, in vivo, iv, 5 mg/kg, Equivalence (80%-125%) range of pregabalin AUC0-∞, rats; Pregabalin 5 mg/kg alone as reference
readout.label: AUC(0-inf)

Exam item: Can you share its AUC(0-inf)? I mean this compound: CC(C)C[C@H](CN)CC(=O)O
Marked response: 20900 to 32700 ng·h/mL

----------
- experiment.notes: Solubility of pregabalin and acetaminophen in water at different pH values (HPLC-UV)
- particulars: aqueous buffer, thermodynamic from solid, Solubility of pregabalin, water, pH range of 5-7; pregabalin alone
readout.label: solubility

Exam item: Can you share its solubility? I mean this compound: CC(C)C[C@H](CN)CC(=O)O
Marked response: ~31 mg/mL

----------
- experiment.notes: Pharmacokinetic parameters after 15 min infusion in rats
- particulars: rat, in vivo, iv, 1.25 mg/kg, Cmax of pregabalin, rats, 15 min IV infusion; Pregabalin 1.25 mg/kg
readout.label: Cmax (ng/mL)
Answers are plain numbers, in ng/mL.

Exam item: Can you share its Cmax? I mean this compound: CC(C)C[C@H](CN)CC(=O)O
Marked response: 2060

----------
- experiment.notes: Pharmacokinetic parameters after 15 min infusion in rats
- particulars: rat, in vivo, iv, 1.25 mg/kg, AUC0-∞ of pregabalin, rats, 15 min IV infusion; Pregabalin 1.25 mg/kg
readout.label: AUC(0-inf) (ng·h/mL)
Numbers only, in ng·h/mL.

Exam item: Can you share its AUC(0-inf)? I mean this compound: CC(C)C[C@H](CN)CC(=O)O
Marked response: 6750

----------
- experiment.notes: Solubility of pregabalin and acetaminophen in water at different pH values (HPLC-UV)
- particulars: pH 6, aqueous buffer, thermodynamic from solid, Solubility of pregabalin, water, pH 6; co-dissolved with acetaminophen
readout.label: solubility (mg/mL)
One number for each entry, in mg/mL.

Exam item: Can you share its solubility? I mean this molecule: CC(C)C[C@H](CN)CC(=O)O
Marked response: 35

----------
- experiment.notes: Solubility of pregabalin and acetaminophen in water at different pH values (HPLC-UV)
- particulars: pH 4, aqueous buffer, thermodynamic from solid, Solubility of pregabalin, water, pH 4; co-dissolved with acetaminophen
readout.label: solubility (mg/mL)
Answers are plain numbers, in mg/mL.

Exam item: Can you share its solubility? I mean this compound: CC(C)C[C@H](CN)CC(=O)O
Marked response: 54.4

----------
- experiment.notes: Pharmacokinetic parameters after 15 min infusion in rats
- particulars: rat, in vivo, iv, 5 mg/kg, Cmax of pregabalin, rats, 15 min IV infusion; Pregabalin 5 mg/kg
readout.label: Cmax (ng/mL)
Give bare numbers, in ng/mL.

Exam item: Can you share its Cmax? I mean this compound: CC(C)C[C@H](CN)CC(=O)O
Marked response: 7910

Values compiled from patent US11547686B2.
